# STUDY_SYSTEM: Cellular tumor antigen p53 (Homo sapiens) (UniProt P04637)
# Sequence (P04637 whole entry, looked up): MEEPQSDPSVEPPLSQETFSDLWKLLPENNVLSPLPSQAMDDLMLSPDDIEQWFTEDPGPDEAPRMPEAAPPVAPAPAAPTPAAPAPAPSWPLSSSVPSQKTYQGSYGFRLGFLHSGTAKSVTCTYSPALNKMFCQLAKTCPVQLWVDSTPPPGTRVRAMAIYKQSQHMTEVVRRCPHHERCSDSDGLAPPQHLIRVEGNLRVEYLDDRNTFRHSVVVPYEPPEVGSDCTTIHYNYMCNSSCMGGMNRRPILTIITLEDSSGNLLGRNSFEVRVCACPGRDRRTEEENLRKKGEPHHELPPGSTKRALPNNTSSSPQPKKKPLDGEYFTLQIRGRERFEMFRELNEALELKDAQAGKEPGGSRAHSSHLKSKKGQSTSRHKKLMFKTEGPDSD
# EXPERIMENT_SUMMARY: Primary qHTS for small molecule compounds that upregulate eGFP-tagged delta133p53alpha (in N-terminal) cells. (AID 2060322);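 further: cells pre-induced with doxycycline then dosed without doxycycline; series mostly up to about 56 µM; 0% = DMSO vehicle and 100% = reference activator; nearly all actives have a fitted effect of over 75% in size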
# CONDITION_NOTES: NCI-H358 eGFP-delta133p53alpha fluorescence, 24 h; active compounds read high
# Text: Assay Development and Screening Technology National Center for Advancing Translational Sciences (NCATS), National Institute of Health (NIH), Rockville, Maryland Cellular senescence (CS) is one of the hallmarks of aging and age-related diseases. […] Here we report the development and validation of a cell-based quantitative high throughput screening (qHTS) assay in 1,536-well format. […]
Inconclusive results are not listed.
MEASUREMENT_TYPE: activation (%)
Please give a number only; it is taken to be in %.

{"columns": ["MOLECULAR_STRING", "UNITS_SYMBOL", "VALUE_MEASURED"],
 "data": [
  ["CC(C)OC(=O)CCCC=CC[C@@H]1[C@H](C=C[C@@H](O)COc2cccc(C(F)(F)F)c2)[C@H](O)C[C@@H]1O", "%", -7.59],
  ["Cc1cc2ncc(C(=O)NCC(C)(C)NCC(=O)N3CCC[C@H]3C#N)cn2n1", "%", -6.33],
  ["Cc1nc2n(c(=O)c1CCN1CCC(C(=O)c3ccc(F)cc3)CC1)CCS2", "%", 23.2]
]}

(Q) Fill in the recorded activation for this compound, with Cellular tumor antigen p53 (Homo sapiens) (UniProt P04637) as test system: Cc1ccc(F)cc1C(=O)Nc1ccc(C(=O)N2Cc3cccn3Cc3ccccc32)c(Cl)c1
(A) 1.67

(Q) # returns recorded activation (system: Cellular tumor antigen p53 (Homo sapiens) (UniProt P04637)) for N[C@@H](Cc1cnc[nH]1)C(=O)O
(A) 30.1
